# test.system: Replicase polyprotein 1ab (Severe acute respiratory syndrome coronavirus 2)
# protocol.summary: Inhibition of N-terminal 6His-tagged SARS-CoV-2 wild type PLpro extracted from Escherichia coli BL21 (DE3) cells incubated for 60 mins by FRET assay
pIC50: −log10 of the molar value.
outcome.measure: pIC50

> print(dat)
                                   compound  outcome.measure  reported.measurement
1  COc1cc(CNC(=O)C2CCN(C(C)c3c(OC)ccc4ccccc34)CC2)ccn1 (racemic)            pIC50                < 4.01
2  COc1cc(CNC(=O)C2CCN(C(C)c3c(C)sc4ccccc34)CC2)ccn1 (racemic)            pIC50                < 4.01
3  CCOc1ccc2ccccc2c1C(C)N1CCC(C(=O)NCc2ccnc(OC)c2)CC1 (racemic)            pIC50                < 4.01

----------
# test.system: Replicase polyprotein 1ab (Severe acute respiratory syndrome coronavirus 2, UniProt P0DTD1)
# protocol.summary: Inhibition of SARS-CoV-2 Main protease using Dabcyl-KLSAVLQSGFRKM-Edans-NH2 as substrate incubated for 30 mins by FRET based enzymatic assay
outcome.measure: IC50

> print(dat)
                                smiles.data  reported.measurement
1  Cc1ccc(OCCN(C)C)cc1C(=O)N[C@H](C)c1cc(-c2cnn(CCN3CCOCC3)c2)cc(-c2cccs2)c1                 60 nM
2  Cc1ccc(OCCN(C)C)cc1C(=O)N[C@H](C)c1cc(-c2cnn(CCO)c2)cc(-c2ccc(CN3CCCC3)s2)c1                 70 nM
3  Cc1ccc(OCCN(C)C)cc1C(=O)N[C@H](C)c1cc(-c2cnn(C)c2)cc(-c2cnn(CCO)c2)c1                 90 nM
4  Cc1ccc(OCCN(C)C)cc1C(=O)N[C@H](C)c1cc(-c2cnn(CC(N)=O)c2)cc(-c2cccs2)c1                 80 nM
5  Cc1ccc(OCCN(C)C)cc1C(=O)N[C@H](C)c1cc(-c2ccc(N3CCOCC3)nc2)cc(-c2cccs2)c1                 90 nM
6  Cc1ccc(OCCN(C)C)cc1C(=O)N[C@H](C)c1cc(-c2ccn(C)n2)cc(-c2ccn(C3CC3)n2)c1                120 nM

----------
# test.system: Replicase polyprotein 1ab (Severe acute respiratory syndrome coronavirus 2, UniProt P0DTD1)
# protocol.summary: Inhibition of SARS-CoV-2 papain-like protease (PLpro) extracted from Escherichia coli BL21 (DE3) cells using RLRGG-AMC as substrate preincubated for 10 mins followed by substrate addition measured for 35 mins by FRET analysis
pIC50: −log10 of the molar value.
# pIC50 per record follows
outcome.measure: pIC50

> print(dat)
                                    compound  reported.measurement
 1  Cc1ccc(NC(=O)[C@@]2(C)CCCN2)cc1C(=O)N[C@H](C)c1cccc2ccccc12                  5.74
 2  Cc1ccc(NC2CCN(S(C)(=O)=O)CC2)cc1C(=O)N[C@H](C)c1cccc2ccccc12                  5.72
 3  Cc1ccc(NC(=O)C2CN(C)CCN2C)cc1C(=O)N[C@H](C)c1cccc2ccccc12 (mixture of isomers)                  5.77
 4  Cc1ccc(NC(=O)CCN)cc1C(=O)N[C@H](C)c1cccc2ccccc12                  5.74
 5  Cc1ccc(NC(=O)C2CCN2)cc1C(=O)N[C@H](C)c1cccc2ccccc12 (mixture of isomers)                  5.74
 6  Cc1ccc(NC(=O)[C@@H](CN)NC[C@@H]2CCCN2)cc1C(=O)N[C@H](C)c1cccc2ccccc12                  5.72
 7  Cc1ccc(NC2CCN(C[C@H]3CCCN3)CC2)cc1C(=O)N[C@H](C)c1cccc2ccccc12                  5.74
 8  Cc1ccc(NC(=O)[C@@H](N)CCN)cc1C(=O)N[C@H](C)c1cccc2ccccc12                  5.72
 9  Cc1ccc(NC(=O)CN2CCCCC2)cc1C(=O)N[C@H](C)c1cccc2ccccc12                  5.74
10  Cc1ccc(NCC(C)(C)N)cc1C(=O)N[C@H](C)c1cccc2ccccc12                  5.74

----------
# pIC50 listing for each entry below
# test.system: UniProt:P0DTD1
# protocol.summary: Inhibition of SARS-CoV-2 Main protease extracted from Escherichia coli BL21 (DE3) cells measured for 60 mins by FRET based analysis
pIC50: −log10 of the molar value.
outcome.measure: pIC50

> print(dat)
                                   compound     test.system  reported.measurement
1  Cc1ccc(NC[C@@]2(C)CCCN2)cc1C(=O)N[C@H](C)c1cccc2ccccc12  UniProt:P0DTD1                  5.96
2  Cc1ccc(NC[C@@H]2CCCCN2C)cc1C(=O)N[C@H](C)c1cccc2ccccc12  UniProt:P0DTD1                  5.85
3  Cc1ccc(NC(=O)C2CNCCN2)cc1C(=O)N[C@H](C)c1cccc2ccccc12 (mixture of isomers)  UniProt:P0DTD1                  5.82
4  Cc1ccc(NC[C@]2(C)CCCN2)cc1C(=O)N[C@H](C)c1cccc2ccccc12  UniProt:P0DTD1                  5.92
5  Cc1ccc(NC[C@H]2CCCN2C)cc1C(=O)N[C@H](C)c1cccc2ccccc12  UniProt:P0DTD1                  5.82

----------
# test.system: Replicase polyprotein 1ab (Severe acute respiratory syndrome coronavirus 2, UniProt P0DTD1)
# protocol.summary: Binding affinity to SARS-CoV-2 Main protease assessed as inhibition constant by SPR analysis
pKi: −log10 of the molar value.
outcome.measure: pKi

> print(dat)
                                smiles.data  reported.measurement
1  CCn1ccc(-c2cc(-c3cnn(CCOC)c3)cc([C@@H](C)NC(=O)c3cc(OCCN(C)C)ccc3C)c2)n1                  7.52
2  Cc1ccc(OCCN(C)C)cc1C(=O)N[C@H](C)c1cc(-c2cccs2)cc(-c2cccs2)c1                  8.00
3  Cc1ccc(OCCN(C)C)cc1C(=O)N[C@H](C)c1cc(-c2cnn(C)c2)cc(-c2cnn(C)c2)c1                  7.52

----------
Measured pKi by item
# test.system: Replicase polyprotein 1ab (Severe acute respiratory syndrome coronavirus 2, UniProt P0DTD1)
# protocol.summary: Binding affinity to SARS-CoV-2 papain-like protease extracted from Escherichia coli BL21 (DE3) cells assessed as inhibition constant by SPR analysis
pKi: −log10 of the molar value.
outcome.measure: pKi

> print(dat)
                                smiles.data  outcome.measure  reported.measurement
1  Cc1ccc(OCCN(C)C)cc1C(=O)N[C@H](C)c1cc(-c2cnn(C)c2)cc(-c2cnn(C(C)C)c2)c1              pKi                  7.40
2  Cc1ccc(OCCN(C)C)cc1C(=O)N[C@H](C)c1cc(-c2cnn(C)c2)cc(-c2cnn(C(F)F)c2)c1              pKi                  7.52
3  COCn1cc(-c2cc(-c3cnn(C(F)F)c3)cc([C@@H](C)NC(=O)c3cc(OCCN(C)C)ccc3C)c2)cn1              pKi                  7.10
4  Cc1ccc(OCCN(C)C)cc1C(=O)N[C@H](C)c1cc(-c2cnn(CF)c2)cc(-c2ccn(C)n2)c1              pKi                  7.52
5  Cc1ccc(OCCN(C)C)cc1C(=O)N[C@H](C)c1cc(-c2cnn(C)c2)cc(-c2ccn(C)n2)c1              pKi                  7.40

----------
# test.system: Replicase polyprotein 1ab (Severe acute respiratory syndrome coronavirus 2, UniProt P0DTD1)
# protocol.summary: Inhibition of SARS-CoV-2 papain-like protease (PLpro) by enzymatic assay
pIC50: −log10 of the molar value.
outcome.measure: pIC50

> print(dat)
                                smiles.data  reported.measurement
1  CCn1ccc(-c2cc(-c3cnn(COC)c3)cc([C@@H](C)NC(=O)c3cc(OCCN(C)C)ccc3C)c2)n1                  6.62
2  CCn1ccc(-c2cc(-c3cnn(C(C)C)c3)cc([C@@H](C)NC(=O)c3cc(OCCN(C)C)ccc3C)c2)n1                  6.70
3  Cc1ccc(OCCN(C)C)cc1C(=O)N[C@H](C)c1cc(-c2ccoc2)cc(-c2ccoc2)c1                  7.10
4  CCn1ccc(-c2cc(-c3ccn(C(F)F)n3)cc([C@@H](C)NC(=O)c3cc(OCCN(C)C)ccc3C)c2)n1                  6.40
5  CCn1ccc(-c2cc(-c3ccn(CC)n3)cc([C@@H](C)NC(=O)c3cc(OCCN(C)C)ccc3C)c2)n1                  6.70
6  Cc1ccc(OCCN(C)C)cc1C(=O)N[C@H](C)c1cc(-c2c(C)noc2C)cc(-c2c(C)noc2C)c1                  6.40
7  Cc1ccc(OCCN(C)C)cc1C(=O)N[C@H](C)c1cc(-c2cnn(CCO)c2)cc(-c2cnn(CCO)c2)c1                  6.80
